meta.source: ChEMBL document CHEMBL1127512

# Method Notes: Inhibitory concentration was tested on electrically stimulated guinea pig ileal longitudinal muscle using ethylketazocine as kappa opioid receptor agonist at 100 nM of the compound
# Type: functional

Structure	Ratio
O=C(NCCN1CC[C@]23c4c5ccc(O)c4O[C@H]2c2[nH]c4c(c2C[C@@]3(O)C1=C5)C[C@@]1(O)[C@H]2Cc3ccc(O)c5c3[C@@]1(CCN2CC1CC1)[C@H]4O5)OCc1ccccc1	26
NCC(=O)NCC(=O)N1CC[C@]23c4c5ccc(O)c4O[C@H]2c2[nH]c4c(c2C[C@@]3(O)[C@H]1C5)C[C@@]1(O)[C@H]2Cc3ccc(O)c5c3[C@@]1(CCN2CC1CC1)[C@H]4O5	9.6
N=C(N)NCCN1CC[C@]23c4c5ccc(O)c4O[C@H]2c2[nH]c4c(c2C[C@@]3(O)[C@H]1C5)C[C@@]1(O)[C@H]2Cc3ccc(O)c5c3C1(CCN2CC1CC1)[C@H]4O5	27
CCCCN1CC[C@]23c4c5ccc(O)c4O[C@H]2c2[nH]c4c(c2C[C@@]3(O)[C@H]1C5)C[C@@]1(O)[C@H]2Cc3ccc(O)c5c3[C@@]1(CCN2CC1CC1)[C@H]4O5	61
NCCN1CC[C@]23c4c5ccc(O)c4O[C@H]2c2[nH]c4c(c2C[C@@]3(O)[C@H]1C5)C[C@@]1(O)[C@H]2Cc3ccc(O)c5c3[C@@]1(CCN2CC1CC1)[C@H]4O5	20
